This collection of values is drawn from paper PMC11785709.

# target_under_test: ROCK1 (Homo sapiens, UniProt Q13464)
# Sequence (Q13464 whole entry): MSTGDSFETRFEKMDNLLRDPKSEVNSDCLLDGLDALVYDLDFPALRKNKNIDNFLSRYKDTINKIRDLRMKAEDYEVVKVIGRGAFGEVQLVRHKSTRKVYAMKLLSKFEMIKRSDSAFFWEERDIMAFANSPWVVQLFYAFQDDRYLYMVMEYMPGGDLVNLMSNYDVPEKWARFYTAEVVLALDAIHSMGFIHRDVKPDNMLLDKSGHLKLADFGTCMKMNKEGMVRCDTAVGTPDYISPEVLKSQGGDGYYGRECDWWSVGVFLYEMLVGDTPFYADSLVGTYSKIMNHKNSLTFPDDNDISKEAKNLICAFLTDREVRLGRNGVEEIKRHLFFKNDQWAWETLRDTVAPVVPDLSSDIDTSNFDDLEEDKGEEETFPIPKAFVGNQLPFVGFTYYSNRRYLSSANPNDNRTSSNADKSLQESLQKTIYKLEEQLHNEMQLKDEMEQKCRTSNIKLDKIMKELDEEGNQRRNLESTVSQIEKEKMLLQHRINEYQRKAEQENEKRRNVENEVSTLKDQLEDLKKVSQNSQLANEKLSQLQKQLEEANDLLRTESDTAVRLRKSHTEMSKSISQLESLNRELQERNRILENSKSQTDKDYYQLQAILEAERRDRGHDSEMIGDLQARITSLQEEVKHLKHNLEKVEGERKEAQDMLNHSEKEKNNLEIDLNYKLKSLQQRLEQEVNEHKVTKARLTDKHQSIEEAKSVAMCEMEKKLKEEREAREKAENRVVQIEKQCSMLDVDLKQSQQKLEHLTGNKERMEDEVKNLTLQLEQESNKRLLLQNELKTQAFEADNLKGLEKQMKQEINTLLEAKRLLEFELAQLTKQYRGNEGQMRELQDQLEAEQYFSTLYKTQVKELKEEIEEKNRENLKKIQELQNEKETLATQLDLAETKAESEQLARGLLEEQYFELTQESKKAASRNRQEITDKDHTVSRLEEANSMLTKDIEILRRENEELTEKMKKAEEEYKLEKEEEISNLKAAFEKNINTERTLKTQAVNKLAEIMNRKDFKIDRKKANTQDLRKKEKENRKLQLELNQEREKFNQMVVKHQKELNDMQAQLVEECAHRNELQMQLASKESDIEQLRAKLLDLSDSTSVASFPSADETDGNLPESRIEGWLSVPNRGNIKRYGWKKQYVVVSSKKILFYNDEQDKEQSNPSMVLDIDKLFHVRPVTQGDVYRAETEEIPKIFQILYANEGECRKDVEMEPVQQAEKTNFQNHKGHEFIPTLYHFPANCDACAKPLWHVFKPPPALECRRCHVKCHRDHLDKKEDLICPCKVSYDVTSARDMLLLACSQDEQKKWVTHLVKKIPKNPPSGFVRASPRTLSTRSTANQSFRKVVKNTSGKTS
# assay_text: Reaction Biology kinase activity inhibition
# Format: biochemical
# Parameters: purchased Reaction Biology (Malvern, PA)
# cond: Reaction Biology, Inc, Table 1; read-out: ROCK1 IC50
property_name: pIC50
// pIC50 is dimensionless: -log10 of concentration (M)

Tell me its pIC50 on ROCK1 (Homo sapiens, UniProt Q13464): CC1(C)Oc2cc3oc(=O)ccc3cc2C[C@@H]1O [DOH, decursinol]
4.09

Tell me its pIC50 on ROCK1 (Homo sapiens, UniProt Q13464): C/C=C(/C)C(=O)O[C@H]1Cc2cc3ccc(=O)oc3cc2OC1(C)C [DA, decursinol angelate]
4.74
